Biological target: hKCa2.2 (Homo sapiens, UniProt Q9H2S1)
Experiment: Automated patch clamp (QPatch), IKCa in HEK293 cells stably expressing hKCa2.2
Type: cell-based
Conditions: hKCa2.2, automated patch clamp, present study, n = 8

| compound | IC50 |
| --- | --- |
| Cc1nccn1CC1CCc2c(c3ccccc3n2C)C1=O (stereo not shown) | > 30 µM |

###

Target: hKCa2.3 (Homo sapiens, UniProt Q9UGI6)
Experiment: Automated patch clamp (QPatch), IKCa in HEK293 cells stably expressing hKCa2.3
Type: cell-based
Details: hKCa2.3, automated patch clamp, present study, n = 8

| compound | IC50 |
| --- | --- |
| Cc1nccn1CC1CCc2c(c3ccccc3n2C)C1=O (stereo not shown) [Ondansetron] | > 30 µM |
